Reported MIC values for a set of molecules
Test system: Human rhinovirus sp.
Test: In vitro minimum inhibitory concentration against human rhinovirus-14 (HRV-14)
Type: functional
A number alone suffices; assume µg/mL.

molecule: CCCC[C@H]1COC(c2ccc(OCCCCCCCc3cc(C)no3)cc2)=N1
unit-of-measurement: µg/mL
result-value: 0.06

Problem: Find the recorded MIC belonging to Cc1cc(CCCCCCCOc2ccc(C3=N[C@H](C(C)C)CO3)cc2)on1 and report it.
Solution: 0.13

Problem: And what about the molecule Cc1cc(CCCCCCCOc2ccc(C3=NC(C)CO3)cc2)on1 (stereo not drawn) ?
Solution: 0.03
